Entries and their shrunken log2 fold change
Test system: Escherichia coli TOP10;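 note: peptides expressed intracellularly from a pBAD plasmid library in pooled LB shake-flask culture, induced with 0.3% L-arabinose, DNA abundance read by NGS, three biological replicates, DESeq2 with apeglm shrinkage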
Assay: shrunken log2 fold change of peptide-encoding DNA abundance (4.5 h post-induction vs induction); higher = less antimicrobial activity (less host growth inhibition)
Settings: time post-induction: 4.5 h; library: site-saturation at positions 5, 18, 19, 20

Previously resolved entries follow.
[[record]]
ordered_residues = "RRIRYRPPRLPRPRPRPPPGPRP"
target_under_test = "Escherichia coli TOP10"
experimental_endpoint = "shrunken log2 fold change"
measurement = 0.909

[[record]]
ordered_residues = "RRIRRRPPRLPRPRPRPRAWPRP"
target_under_test = "Escherichia coli TOP10"
experimental_endpoint = "shrunken log2 fold change"
measurement = -0.0407

[[record]]
ordered_residues = "RRIRQRPPRLPRPRPRPQNCPRP"
target_under_test = "Escherichia coli TOP10"
experimental_endpoint = "shrunken log2 fold change"
measurement = 0.0179

[[record]]
ordered_residues = "RRIRKRPPRLPRPRPRPCCIPRP"
target_under_test = "Escherichia coli TOP10"
experimental_endpoint = "shrunken log2 fold change"
measurement = 0.243

[[record]]
ordered_residues = "RRIRYRPPRLPRPRPRPVFIPRP"
target_under_test = "Escherichia coli TOP10"
experimental_endpoint = "shrunken log2 fold change"
measurement = -0.929

[[record]]
ordered_residues = "RRIRDRPPRLPRPRPRPFDAPRP"
target_under_test = "Escherichia coli TOP10"
experimental_endpoint = "shrunken log2 fold change"
measurement = -0.13


Task: Query (sequence): RRIRLRPPRLPRPRPRPWRLPRP ; field requested: shrunken log2 fold change
Output: 0.0799

Task: Query (sequence): RRIRCRPPRLPRPRPRPSLPPRP ; field requested: shrunken log2 fold change
Output: -0.0253

Task: Query (sequence): RRIRFRPPRLPRPRPRPCKQPRP ; field requested: shrunken log2 fold change
Output: 0.00386

Task: Query (sequence): RRIRERPPRLPRPRPRPHAGPRP ; field requested: shrunken log2 fold change
Output: 0.0727

Task: Query (sequence): RRIRVRPPRLPRPRPRPYQEPRP ; field requested: shrunken log2 fold change
Output: 0.00202

Task: Query (sequence): RRIRGRPPRLPRPRPRPQMNPRP ; field requested: shrunken log2 fold change
Output: 0.355

Data provenance is the supplement of paper PMC9112550.
